- Assay target: UniProt P0DMS8
- Sequence (P0DMS8 whole entry): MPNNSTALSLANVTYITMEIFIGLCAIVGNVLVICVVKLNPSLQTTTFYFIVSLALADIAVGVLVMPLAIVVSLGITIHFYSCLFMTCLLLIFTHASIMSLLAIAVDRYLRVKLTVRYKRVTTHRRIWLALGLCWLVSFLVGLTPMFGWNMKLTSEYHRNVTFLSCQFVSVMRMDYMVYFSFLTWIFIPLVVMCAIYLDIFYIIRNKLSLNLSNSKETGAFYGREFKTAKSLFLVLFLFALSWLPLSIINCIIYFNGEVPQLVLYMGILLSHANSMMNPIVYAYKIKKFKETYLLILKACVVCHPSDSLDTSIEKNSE
- Method: inhibition of forskolin-stimulated cAMP accumulation in HEK-293 cells expressing A3R (partial agonist, Emax […])
- Setup conditions: read-out: IC50 (the source's name)
Endpoint name: EC50 (nM)

{"columns": ["Chemical smiles", "Numeric readout"],
 "data": [
  ["CNC(=O)[C@H]1O[C@@H](n2cnc3c(NCc4ccc5c(c4)/N=N/c4ccccc4CC5)ncnc32)[C@H](O)[C@@H]1O", 31]
]}

meta.source: paper PMC11726555
